Experimental Target: C-X-C chemokine receptor type 6 (Homo sapiens) (UniProt O00574)
Sequence (O00574 whole entry, looked up): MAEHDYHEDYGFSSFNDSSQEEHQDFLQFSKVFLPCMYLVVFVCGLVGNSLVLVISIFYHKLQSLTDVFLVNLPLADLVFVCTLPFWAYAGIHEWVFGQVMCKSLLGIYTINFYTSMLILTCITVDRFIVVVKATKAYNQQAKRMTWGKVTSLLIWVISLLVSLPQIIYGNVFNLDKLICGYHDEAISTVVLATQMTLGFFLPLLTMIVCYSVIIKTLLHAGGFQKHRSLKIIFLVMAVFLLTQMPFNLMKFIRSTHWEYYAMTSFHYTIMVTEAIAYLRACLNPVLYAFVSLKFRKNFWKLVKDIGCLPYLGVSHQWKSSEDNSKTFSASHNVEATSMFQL
Assay: potency against CXCR6 with APJ panel – cell-based, beta-arrestin, DiscoveRx, uHTS hits, dose response (AID 624129)
Measurement Conditions: CXCR6 beta-arrestin (DiscoveRx) antagonist cell assay, CXCR6, run 2, dose range 1, at 79 µM (top of the series)
Recorded Endpoint: inhibition
Reply with the number, then its unit.

# input # inhibition lookup, item "COc1ccc(C(=O)N/N=C/c2cccc3cccnc23)cc1"
# output 60.1%

# input # inhibition lookup, item "Cn1c(=O)n(C)c2cc([N+](=O)[O-])c(N3CCN(C(=O)c4cccc(Cl)c4)CC3)cc21"
# output 60.7%

# input # inhibition lookup, item "O=C(NCc1ccc2c(c1)OCO2)c1nc(S(=O)(=O)Cc2ccccc2F)ncc1Cl"
# output 111%

# input # inhibition lookup, item "Cc1ccccc1CS(=O)(=O)c1nnc([C@H](Cc2ccccc2)NC(=O)OC(C)(C)C)o1"
# output 110%

# input # inhibition lookup, item "Cn1c(=O)[nH]c(=O)c2c1nc(Sc1nc3ccccc3s1)n2Cc1ccccc1"
# output 77.5%

# input # inhibition lookup, item CC1=C(CO)C(=O)OC([C@@H](C)C2CC[C@H]3C4C[C@H]5O[C@]56[C@@H](O)C=CC(=O)[C@]6(C)C4CC[C@]23C)C1 (stereo not given in full)
# output 112%

# input # inhibition lookup, item "Cc1ccc(C(=O)NNC(=S)NC(=O)c2ccccc2)cc1"
# output 84.4%

# input # inhibition lookup, item "COc1ccc(CNC(=O)c2nc(S(=O)(=O)Cc3ccccc3)ncc2Cl)cc1"
# output 108%

# input # inhibition lookup, item "O=C1C=CC(=O)N1CCNc1ncc(C(F)(F)F)cc1Cl"
# output 110%

# input # inhibition lookup, item "O=C(C(=Cc1ccc(F)cc1)C(=O)c1ccccc1)c1ccccc1"
# output 112%

# input # inhibition lookup, item COc1cc(C2C(C#N)=C(N)Oc3n[nH]c(-c4cccs4)c32)cc(OC)c1O (stereo not given)
# output 70.9%

# input # inhibition lookup, item "Cc1cccc(NC(=S)N/N=C/c2ccc([N+](=O)[O-])s2)c1"
# output 87.7%

# input # inhibition lookup, item CC(=NO)C1CCC2C3CCC4=CC(=NO)CCC4(C)C3C(O)CC12C (stereo not given)
# output 75.2%

# input # inhibition lookup, item "Cc1cc2nc(N3C(=O)CNC3=S)sc2cc1C"
# output 89.4%

# input # inhibition lookup, item "COC(=O)c1ccccc1-c1c2ccc(=N)cc-2oc2cc(N)ccc12"
# output 88.3%

# input # inhibition lookup, item "C=CC[C@H](CC(=O)N(CCO)Cc1ccccc1)C(=O)NC[C@H](OC(=O)[C@@H](CC=C)CC(=O)OC(C)(C)C)c1ccccc1"
# output 76.8%

# input # inhibition lookup, item "CCc1nnc(NS(=O)(=O)c2ccc(Nc3ccc([N+](=O)[O-])c4nonc34)cc2)s1"
# output 92.2%

# input # inhibition lookup, item "O=C(NC(=S)Nc1ccccc1O)c1cccnc1"
# output 58.4%

# input # inhibition lookup, item "O=C1C=CC(=O)N1c1ccc(N2CCCCC2)cc1"
# output 113%

# input # inhibition lookup, item "C=CCOc1ccc(C=NNc2ccc(S(=O)(=O)Nc3ccccc3C(=O)O)cc2[N+](=O)[O-])cc1OC"
# output 98.5%
